Would you mind telling me the reported AC50 of each entry?
Biological target: Thromboxane A2 receptor (Homo sapiens); also: assay procedure not described here
Sequence (P21731 whole entry): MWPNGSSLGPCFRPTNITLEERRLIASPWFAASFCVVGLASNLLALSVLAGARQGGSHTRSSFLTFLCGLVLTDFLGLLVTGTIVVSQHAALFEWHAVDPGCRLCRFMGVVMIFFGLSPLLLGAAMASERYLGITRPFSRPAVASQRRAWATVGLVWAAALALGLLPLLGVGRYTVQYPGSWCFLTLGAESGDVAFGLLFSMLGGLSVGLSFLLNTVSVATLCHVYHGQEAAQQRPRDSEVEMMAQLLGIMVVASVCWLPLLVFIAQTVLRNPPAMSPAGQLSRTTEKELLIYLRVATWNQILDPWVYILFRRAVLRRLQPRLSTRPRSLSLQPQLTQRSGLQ
Type: functional, cell-based

Look over these answered cases.
>>> test_value("C[C@]1(Cn2ccnn2)[C@H](C(=O)O)N2C(=O)C[C@H]2S1(=O)=O")
"> 30 µM"
>>> test_value("N#Cc1ccc2c(c1)N(CCCN1CCC(O)CC1)c1ccccc1S2")
"17 µM"
>>> test_value("OC[C@H]1O[C@@H](c2ccc(F)c(Cc3cc4ccccc4s3)c2)[C@H](O)[C@@H](O)[C@@H]1O")
"> 30 µM"
>>> test_value("CC(CN1CC(=O)NC(=O)C1)N1CC(=O)NC(=O)C1 (stereo not drawn)")
"> 30 µM"
>>> test_value("O=C(O)c1cn(C2CC2)c2cc(N3CCNCC3)c(F)cc2c1=O")
"> 30 µM"
>>> test_value("O=C1/C(=C2\\Nc3ccc(S(=O)(=O)O)cc3C2=O)Nc2ccc(S(=O)(=O)O)cc21 [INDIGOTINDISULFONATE]")
"> 30 µM"
>>> test_value("CC(C)(O)CNc1nc(Nc2ccnc(C(F)(F)F)c2)nc(-c2cccc(C(F)(F)F)n2)n1")
"7.09 µM"

Turning now to a further record.
Specify reported AC50 for the compound shown: CN(CC1(C)CCCO1)S(=O)(=O)c1ccc(Cl)c(S(N)(=O)=O)c1 (stereo not drawn) [MEFRUSIDE]
> 30 µM
